# System: AMMC demethylase (cytochrome P450) in rat liver microsomes
# test_description: Fluorometric cytochrome P450 assay, AMMC demethylation in rat liver microsomes
# Type: biochemical
# test_conditions: male, Sprague-Dawley, pH 7.4, probe AMMC (30 μM), AMMC substrate, read-out: IC50, inhibition of AMMC demethylation

- compound: "Nc1ccc(S(=O)(=O)Nc2ccnn2-c2ccccc2)cc1 [sulfaphenazole]"
  IC50 at 1 h (nM): 500
